- Target: GLP-1R (Homo sapiens, UniProt P43220)
- Construct: host or cells: GLP-1R CRE-bla CHO-K1 cells
- Sequence (P43220 24-463): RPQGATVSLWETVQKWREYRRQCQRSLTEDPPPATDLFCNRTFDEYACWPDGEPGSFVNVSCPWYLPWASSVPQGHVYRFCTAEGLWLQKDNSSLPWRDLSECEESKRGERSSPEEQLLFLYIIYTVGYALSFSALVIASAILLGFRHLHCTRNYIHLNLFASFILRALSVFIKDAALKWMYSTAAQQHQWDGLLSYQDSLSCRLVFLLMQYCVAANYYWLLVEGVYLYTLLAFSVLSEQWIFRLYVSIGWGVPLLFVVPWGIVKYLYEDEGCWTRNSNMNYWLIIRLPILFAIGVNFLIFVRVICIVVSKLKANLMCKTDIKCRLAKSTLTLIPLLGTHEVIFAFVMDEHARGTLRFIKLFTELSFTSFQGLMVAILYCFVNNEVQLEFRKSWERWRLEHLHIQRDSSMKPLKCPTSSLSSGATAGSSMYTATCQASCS
- Sequence (P01275 100-127 partner limits assumed): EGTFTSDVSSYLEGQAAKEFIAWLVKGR
- Protocol Details: EC20 GLP-1(9-36) PAM cAMP assay: dose response of compound in the presence of fixed concentration of GLP-1(9-36)
- Type: cell-based
- Test Settings: dose response of compound in presence of fixed concentration of GLP-1(9-36), GLP-1R CRE-bla CHO-K1 cells, read-out: EC20 GLP-1(9-36) PAM EC50
- From the text: EC20 GLP-1(9-36) PAM cAMP Assay: Dose Response of Compound in the Presence of Fixed Concentration of GLP-1 (9-36). […]
Assay Readout: EC50

INSERT INTO assay_data (molecule, recorded_value) VALUES
  ('COc1ccc(-c2cnc(-c3ccc(C[C@H](NC(=O)c4ccc(C(C)(C)C)s4)C(=O)N4CC(C(=O)O)C4)cc3)nc2)cc1', '5000 to 10000 nM'),
  ('CCCCCCCOc1ccc(-c2cnc(-c3ccc(C[C@H](NC(=O)c4ccc(OCC)cc4)C(=O)N[C@H](C)C(=O)O)cc3)nc2)cc1', '800 to 2500 nM'),
  ('CCCCCCCOc1ccc(-c2cnc(-c3ccc(C[C@H](NC(=O)c4ccc(C(C)(C)C)s4)C(=O)NC4(C(=O)O)CC(F)(F)C4)cc3)nc2)cc1', '800 to 2500 nM'),
  ('CCCCCCCOc1ccc(-c2cnc(-c3ccc(C[C@H](NC(=O)c4ccc(C(C)(C)C)c(OC)c4)C(=O)N4CC[C@H](C(=O)O)C4)cc3)nc2)cc1', '800 to 2500 nM'),
  ('CCCCCCCOc1ccc(-c2cnc(-c3ccc(CC(NC(=O)c4ccc(C(C)(C)C)s4)C(=O)N4CC(C(=O)O)C4)cc3)nc2)cc1 (stereo not drawn)', '< 800 nM'),
  ('CC(C)(C)c1ccc(C(=O)N[C@@H](Cc2ccc(-c3ncc(-c4nc(-c5ccc(Cl)cc5)no4)cn3)cc2)C(=O)NCCC(=O)O)cc1', '2500 to 5000 nM');

---

- Target: GLP-1R (Homo sapiens, UniProt P43220)
- Construct: host or cells: GLP-1R CRE-bla CHO-K1 cells
- Protocol Details: EC20 GLP-1(9-36) PAM cAMP assay: dose response of compound in the presence of fixed concentration of GLP-1(9-36)
- Type: cell-based
- Test Settings: dose response of compound in presence of fixed concentration of GLP-1(9-36), GLP-1R CRE-bla CHO-K1 cells, read-out: EC20 GLP-1(9-36) PAM EC50
In this section, each of the molecules is paired with its reported EC50.
Assay Readout: EC50

INSERT INTO results (molecule, assay_readout, recorded_value) VALUES
  ('CC(C)(C)c1ccc(C(=O)N[C@@H](Cc2ccc(-c3ncc(-c4ccc(OCC5CC5)cc4)cn3)cc2)C(=O)N2CC(C(=O)O)C2)s1 [Compound 781]', 'EC50', '2500 to 5000 nM'),
  ('CCCCCCCCOc1ccc(-c2cnc(-c3ccc(C[C@H](NC(=O)c4ccc(C(C)(C)C)cc4)C(=O)N[C@H](C)C(=O)O)cc3)nc2)cc1 [Compound 723]', 'EC50', '800 to 2500 nM'),
  ('CCCCCCCOc1ccc(-c2cnc(-c3ccc(C[C@H](NC(=O)c4ccc(C(C)(C)C)cc4OC)C(=O)N4CC[C@H](C(=O)O)C4)cc3)nc2)cc1 [Compound 852]', 'EC50', '2500 to 5000 nM'),
  ('CCCCCCCOc1ccc(-c2cnc(-c3ccc(CC(NC(=O)c4ccc(C(C)(C)C)s4)C(=O)Nc4ccc(C(=O)O)cc4)cc3)nc2)cc1 (centres unmarked) [Compound 442]', 'EC50', '800 to 2500 nM'),
  ('CCCCCCCOc1ccc(-c2cnc(-c3ccc(C[C@H](NC(=O)c4ccc(C(C)(C)C)s4)C(=O)N(C)CC4CCN(CCOC)CC4)cc3)nc2)cc1 [Compound 971]', 'EC50', '2500 to 5000 nM'),
  ('CCCCCCCOc1ccc(-c2cnc(-c3ccc(C[C@H](NC(=O)c4ccc(C(C)(C)C)cc4)C(=O)NC(Cc4ccccc4)C(=O)O)cc3)nc2)cc1 (some centres unmarked) [Compound 561]', 'EC50', '< 800 nM'),
  ('CCCCCCCOc1ccc(-c2cnc(-c3ccc(C[C@H](NC(=O)c4ccc(C(C)(C)C)s4)C(=O)N4CC(C(=O)NS(=O)(=O)CC(=O)O)C4)cc3)nc2)cc1 [Compound 649]', 'EC50', '800 to 2500 nM'),
  ('CCCCCCCOc1ccc(-c2cnc(-c3ccc(C[C@H](NC(=O)c4ccc(C(C)(C)C)cc4)C(=O)N4CC(O)CC(C(=O)O)C4)cc3)nc2)cc1 (some centres unmarked) [Compound 662]', 'EC50', '< 800 nM'),
  ('Cc1ccc(/C=C/c2cnc(-c3ccc(C[C@H](NC(=O)c4ccc(C(C)(C)C)s4)C(=O)N4CCC[C@H]4C(=O)O)cc3)nc2)cc1 [Compound 1125]', 'EC50', '800 to 2500 nM'),
  ('CCCCCCCOc1ccc(-c2cnc(-c3ccc(C[C@H](NC(=O)c4ccc(C(C)(C)C)s4)C(=O)N[C@@H](Cc4ccccn4)C(=O)O)cc3)nc2)cc1 [Compound 628]', 'EC50', '800 to 2500 nM'),
  ('CC(C)CCCOc1ccc(-c2cnc(-c3ccc(C[C@H](NC(=O)c4ccc(C(C)(C)C)cc4)C(=O)N[C@H](C)C(=O)O)cc3)nc2)cc1 [Compound 793]', 'EC50', '800 to 2500 nM'),
  ('CC(C)(C)c1ccc(C(=O)N[C@@H](Cc2ccc(-c3ncc(-c4ccc(OCCC5CCCCC5)cc4)cn3)cc2)C(=O)NCCC(=O)O)cc1 [Compound 474]', 'EC50', '800 to 2500 nM'),
  ('CCCCCCCOc1ccc(-c2cnc(-c3ccc(C[C@H](NC(=O)c4ccc(OC)cc4)C(=O)N[C@H](C)C(=O)O)cc3)nc2)cc1 [Compound 817]', 'EC50', '800 to 2500 nM'),
  ('CCCCCCCOc1ccc(-c2cnc(-c3ccc(C[C@H](NC(=O)c4ccc(C(C)(C)C)s4)C(=O)NC(C(=O)O)c4cccc(OC)c4)cc3)nc2)cc1 (some centres unmarked) [Compound 629]', 'EC50', '800 to 2500 nM'),
  ('CCCCCCCOc1ccc(-c2cnc(-c3ccc(C[C@H](NC(=O)c4ccc(C(C)(C)C)cc4)C(=O)N4CCC4C(=O)O)cc3)nc2)cc1 (some centres unmarked) [Compound 565]', 'EC50', '800 to 2500 nM'),
  ('CC(C)[C@H]1CC[C@H](c2ccc(-c3cnc(-c4ccc(C[C@H](NC(=O)c5ccc(C(C)(C)C)s5)C(=O)N5CC(C(=O)O)C5)cc4)nc3)cc2)CC1 [Compound 1178]', 'EC50', '< 800 nM'),
  ('CCc1ccc(/C=C/c2cnc(-c3ccc(C[C@H](NC(=O)c4ccc(C(C)(C)C)s4)C(=O)N4CC[C@H](C(=O)O)C4)cc3)nc2)cc1 [Compound 1086]', 'EC50', '800 to 2500 nM'),
  ('CCCCCCCOc1ccc(-c2cnc(-c3ccc(C[C@H](NC(=O)c4ccc(C(C)(C)C)cc4)C(=O)N4CCC[C@@H](C(=O)O)[C@H]4C)cc3)nc2)cc1 [Compound 583]', 'EC50', '5000 to 10000 nM'),
  ('CCCCCCCOc1ccc(-c2cnc(-c3ccc(C[C@H](NC(=O)c4ccc(C(C)(C)C)cc4)C(=O)N[C@@H](CCCN)C(=O)O)cc3)nc2)cc1 [Compound 469]', 'EC50', '800 to 2500 nM'),
  ('CCCCCCCOc1ccc(-c2cnc(-c3ccc(C[C@H](NC(=O)c4ccc(O)c(F)c4)C(=O)NC(C(=O)O)C(O)c4ccccc4)cc3)nc2)cc1 (some centres unmarked) [Compound 960]', 'EC50', '800 to 2500 nM'),
  ('CC(C)(C)c1ccc(C(=O)N[C@@H](Cc2ccc(-c3ncc(-c4ccc(-c5ccc(C#N)cc5)cc4F)cn3)cc2)C(=O)N2CC(C(=O)O)C2)s1 [Compound 1201]', 'EC50', '< 800 nM'),
  ('CCCCCCCOc1ccc(-c2cnc(-c3ccc(C[C@H](NC(=O)c4ccc(CC(C)C)s4)C(=O)N4CC[C@H](C(=O)O)C4)cc3)nc2)cc1 [Compound 847]', 'EC50', '2500 to 5000 nM'),
  ('Cc1ccc(/C=C/c2cnc(-c3ccc(C[C@H](NC(=O)c4ccc(C(C)(C)C)s4)C(=O)N4CC[C@H](C(=O)O)C4)cc3)nc2)cc1 [Compound 1085]', 'EC50', '800 to 2500 nM');
